# assayed target: CYP3A4 (Homo sapiens, UniProt P08684)
# Sequence (P08684 whole entry): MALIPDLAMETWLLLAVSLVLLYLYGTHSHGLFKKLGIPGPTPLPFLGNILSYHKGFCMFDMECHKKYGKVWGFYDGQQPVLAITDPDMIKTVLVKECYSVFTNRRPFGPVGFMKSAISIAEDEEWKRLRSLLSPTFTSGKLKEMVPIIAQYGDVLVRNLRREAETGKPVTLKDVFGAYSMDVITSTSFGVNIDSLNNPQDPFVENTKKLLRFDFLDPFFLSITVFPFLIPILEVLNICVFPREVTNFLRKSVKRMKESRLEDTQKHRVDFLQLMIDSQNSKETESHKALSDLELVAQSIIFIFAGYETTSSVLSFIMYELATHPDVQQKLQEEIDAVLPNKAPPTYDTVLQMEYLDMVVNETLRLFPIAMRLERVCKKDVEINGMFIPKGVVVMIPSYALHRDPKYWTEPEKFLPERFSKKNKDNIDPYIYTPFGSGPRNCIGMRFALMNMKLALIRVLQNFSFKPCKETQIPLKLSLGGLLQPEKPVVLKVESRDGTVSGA
# assay notes: Inhibition of recombinant CYP3A4-overexpressing microsomes (midazolam probe)
# Assay type: in vitro ADME
# Set-up: made in house; host or cells: HEK293 cells (microsomal fraction)
Reported IC50 values for a set of molecules
endpoint: IC50 (µM)

molecule="CCCCCc1cc(O)c2c(c1)OC(C)(C)C1CC=C(CO)CC21 (centres unmarked) [11-OH-Δ8-THC, 11-hydroxy-Δ8-THC]" readout_units=µM quantitative_readout=1.48
molecule="CCCCCc1cc(O)c2c(c1)OC(C)(C)C1CC=C(C)CC21 (centres unmarked) [Δ8-THC, Δ8-Tetrahydrocannabinol]" readout_units=µM quantitative_readout=0.44
